assay target: human orexin 2 receptor (Homo sapiens (Human), UniProt O43614)
Sequence (O43614 whole entry): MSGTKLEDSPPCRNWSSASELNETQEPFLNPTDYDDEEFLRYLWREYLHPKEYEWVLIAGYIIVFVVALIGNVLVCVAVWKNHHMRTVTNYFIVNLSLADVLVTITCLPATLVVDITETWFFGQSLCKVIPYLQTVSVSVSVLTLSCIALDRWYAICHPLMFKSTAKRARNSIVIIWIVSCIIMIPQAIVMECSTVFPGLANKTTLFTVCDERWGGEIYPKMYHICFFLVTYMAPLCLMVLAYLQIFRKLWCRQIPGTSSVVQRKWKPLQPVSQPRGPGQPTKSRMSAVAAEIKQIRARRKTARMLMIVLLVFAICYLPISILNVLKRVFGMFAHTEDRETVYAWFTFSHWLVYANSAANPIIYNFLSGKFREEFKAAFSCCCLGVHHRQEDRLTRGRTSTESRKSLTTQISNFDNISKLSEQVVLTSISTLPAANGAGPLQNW
procedure text: Human orexin 2 receptor radioligand binding
study conditions: human orexin 2 receptor; averages of 2-20 runs; read-out: hOX2 Ki
readout kind: log10(Ki) (log10 of the value in nM)
Lab note - Ki converted to log10 from values in nM.

>>> print(df.to_string())
                                   compound  recorded_number
0  O=C(c1ccccc1-n1nccn1)N1C[C@H]2C[C@@H](Oc3ccccn3)[C@@H]1C2             3.20
1  CCc1cnc(O[C@@H]2C[C@H]3C[C@@H]2N(C(=O)c2cccc(F)c2-c2ncccn2)C3)nc1             3.23
2  Cc1cnc(O[C@@H]2C[C@H]3C[C@@H]2N(C(=O)c2cccc(F)c2-c2ncccn2)C3)nc1             3.62
3  O=C(c1cccc(F)c1-c1ncccn1)N1C[C@H]2C[C@@H](Nc3cnc(C(F)(F)F)cn3)[C@@H]1C2             2.42
4  O=C(c1cccc(F)c1-c1ncccn1)N1C[C@H]2C[C@@H](Oc3ccc(F)cn3)[C@@H]1C2             3.61

Prompt: Retrieve log10(Ki) on human orexin 2 receptor (Homo sapiens (Human), UniProt O43614); query O=C(c1cc(F)ccc1-n1nccn1)N1C[C@H]2C[C@@H](Nc3ncc(Cl)cn3)[C@@H]1C2
Completion: 3.11

Prompt: Retrieve log10(Ki) on human orexin 2 receptor (Homo sapiens (Human), UniProt O43614); query O=C(c1c(F)cccc1-c1ncccn1)N1C[C@@H]2CC[C@H]1[C@H](Oc1ccc(C(F)(F)F)cn1)C2
Completion: 2.60

Prompt: Retrieve log10(Ki) on human orexin 2 receptor (Homo sapiens (Human), UniProt O43614); query Cc1ccc(N[C@@H]2C[C@H]3C[C@@H]2N(C(=O)c2cccc(F)c2-c2ncccn2)C3)cc1
Completion: 2.53

* * *

assay target: human orexin 1 receptor (Homo sapiens)
procedure text: Human orexin 1 receptor radioligand binding
study conditions: human orexin 1 receptor; averages of 2-20 runs; read-out: hOX1 Ki
readout kind: Ki (nM)
A number alone suffices; assume nM.

Check out these entries, answers already filled in.
In [3]: df
Out[3]:
                         structure_notation  readout_kind  recorded_number
0  O=C(c1ccccc1-n1nccn1)N1C[C@@H]2CC[C@H]1[C@H](Oc1ccc(Br)cn1)C2            Ki                4
1  Cc1cnc(O[C@@H]2C[C@H]3C[C@@H]2N(C(=O)c2cccc(F)c2-c2ncccn2)C3)nc1            Ki              102
2  O=C(c1ccccc1-c1ccccc1)N1C[C@H]2C[C@@H](Nc3cnc(C(F)(F)F)cn3)[C@@H]1C2            Ki               10

Then this compound:
Prompt: Find the measured Ki of Cc1ccc(-n2nccn2)c(C(=O)N2C[C@H]3C[C@@H](Nc4cnc(C(F)(F)F)cn4)[C@@H]2C3)n1 and report it.
Completion: 19

* * *

assay target: human orexin 2 receptor (Homo sapiens (Human))
procedure text: Human orexin 2 receptor radioligand binding
study conditions: human orexin 2 receptor; averages of 2-20 runs; read-out: hOX2 Ki
Documented pKi across a set of molecules
For clarity, pKi is expressed as the negative log10 of concentration in mol/L.

>>> print(df.to_string())
                                   molecule  recorded_number
0  O=C(c1cccc(F)c1-c1ncccn1)N1CC2CCC1C(Nc1cnc(C(F)(F)F)cn1)C2 (racemic)             6.13
1  COC(=O)c1cnc(N[C@@H]2C[C@H]3C[C@@H]2N(C(=O)c2ccccc2-n2nccn2)C3)cn1             5.52
2  O=C(c1cccc(F)c1-c1ncccn1)N1C[C@@H]2CC[C@H]1[C@H](Oc1ccc(Br)cn1)C2             6.44
3  O=C(c1cccc(F)c1-n1nccn1)N1CC2CCC1C(Oc1ccc(C(F)(F)F)cn1)C2 (racemic)             6.12

Prompt: Find the measured pKi of Cc1ccc(-n2nccn2)c(C(=O)N2C[C@H]3C[C@@H](Oc4ccc(C(F)(F)F)nn4)[C@@H]2C3)n1 and report it.
Completion: 5.11

Just for reference, patent US9611277B2 is where these values come from.
